- METHOD DESCRIPTION: Cmax in Sprague-Dawley rat at 3 mg/kg, po
- Type: ADME, organism-based
- Design: dose 3 mg/kg, route oral
- STUDY CONDITIONS: in vivo
REPORTED METRIC: Cmax

Task: Fill in the blank: the reported Cmax of `CC(C)[C@]1(C(=O)NCc2cc(C(F)(F)F)cc(C(F)(F)F)c2)CC[C@@H](N[C@H]2CCOC[C@H]2C)C1` is ____.
Result: 735 nM

====

- TESTED ON: C-C chemokine receptor type 2 (Homo sapiens)
- Sequence (P41597 whole entry): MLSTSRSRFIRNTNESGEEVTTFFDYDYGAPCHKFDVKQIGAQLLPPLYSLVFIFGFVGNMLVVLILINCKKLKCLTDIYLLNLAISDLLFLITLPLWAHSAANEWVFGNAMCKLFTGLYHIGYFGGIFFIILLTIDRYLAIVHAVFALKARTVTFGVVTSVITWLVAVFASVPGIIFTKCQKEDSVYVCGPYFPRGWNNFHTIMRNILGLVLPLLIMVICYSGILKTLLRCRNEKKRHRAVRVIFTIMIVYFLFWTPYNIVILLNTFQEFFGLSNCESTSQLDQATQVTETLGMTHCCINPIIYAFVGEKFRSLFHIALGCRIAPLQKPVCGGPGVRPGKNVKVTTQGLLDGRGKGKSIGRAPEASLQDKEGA
- METHOD DESCRIPTION: Displacement of [125I]hMCP1 from human CCR2 receptor expressed in CHO cells
Would you mind telling me the reported IC50 of each entry?
Give bare numbers, in nM.

The examples below pair each entry with its known result.
> print(dat)
                                   compound  recorded.value
1  CC(C)[C@]1(C(=O)NCc2cc(C(F)(F)F)cc(C(F)(F)F)c2)CC[C@@H](NC2CCOCC2C2CC2)C1 (some centres not stated)             123
2  CC(C)[C@]1(C(=O)NCc2cc(C(F)(F)F)cc(C(F)(F)F)c2)CC[C@@H](NC2CCCC2)C1             156
3  CCC1COCCC1N[C@@H]1CC[C@@](C(=O)NCc2cc(C(F)(F)F)cc(C(F)(F)F)c2)(C(C)C)C1 (stereo in doubt; 60)             141
4  CC(C)[C@]1(C(=O)NCc2cc(C(F)(F)F)cc(C(F)(F)F)c2)CC[C@@H](NC2CCCCC2)C1              64
5  CC(C)[C@]1(C(=O)NCc2cc(C(F)(F)F)cc(C(F)(F)F)c2)CC[C@@H](NC2CCCOCC2)C1 (some centres not stated)              30

Batch request: IC50 per item, same order as input.
1. CC(C)[C@]1(C(=O)NCc2cc(C(F)(F)F)cc(C(F)(F)F)c2)CC[C@@H](NC2CCOCC2C(F)(F)F)C1 (some centres not stated)
2. CC(C)[C@]1(C(=O)NCc2cc(C(F)(F)F)cc(C(F)(F)F)c2)CC[C@@H](NC2Cc3ccccc3C2)C1
3. CC(C)[C@]1(C(=O)NCc2cc(C(F)(F)F)cc(C(F)(F)F)c2)CC[C@@H](NC2CCc3ccccc32)C1 (some centres not stated)
4. CC(C)[C@]1(C(=O)NCc2cc(C(F)(F)F)cc(C(F)(F)F)c2)CC[C@@H](NC2CCOCC2F)C1 (stereo in doubt; 64)
5. CCC1COCCC1N[C@@H]1CC[C@@](C(=O)NCc2cc(C(F)(F)F)cc(C(F)(F)F)c2)(C(C)C)C1 (stereo in doubt; 61)

Result:
[5.5, 187, 77, 14.3, 5.6]

FYI, the data here is from ChEMBL document CHEMBL1153317.
